assay: Quantitative high throughput screen for delayed death inhibitors of the malarial parasite plastid, 48 hour incubation (AID 488752); details: Plasmodium falciparum growth; series mostly up to 28.7 µM; also: nearly all actives have a fitted effect of over 65% in size
Results filed as inconclusive are left out. Activity calls are given as the source filed them. Calls follow the shape of the dose curve; as a rule, active = well fitted inhibition curve with a large enough effect; inconclusive = small, poorly fitted or top-dose-only effect, or effect the other way; inactive = flat fitted curve, though single readings scatter.
Classes used: YES = active, NO = inactive

- Compound: "Ic1ccc(N2CCN(Cc3c[nH]c4ncccc34)CC2)cc1"
  Class assignment: "NO"
- Compound: "CC12C(=O)OC(=O)C1(C)C1CCC2O1 (configuration not stated)"
  Class assignment: "YES"
- Compound: "CCCCCC(O)c1cccc(OCc2ccc3ccccc3n2)c1 (configuration not stated)"
  Class assignment: "NO"
- Compound: "CO/N=C(\\C(=O)N[C@@H]1C(=O)N2C(C(=O)O)=C(COC(C)=O)CS[C@H]12)c1csc(N)n1 (stereo in doubt)"
  Class assignment: "NO"
- Compound: "Fc1ccc(C(OCCCc2cnc[nH]2)c2ccc(F)cc2)cc1"
  Class assignment: "YES"
- Compound: "CC1(C)CCC=[N+]1[O-]"
  Class assignment: "NO"
- Compound: "CN(C)c1nc2c(Br)c(Br)c(Br)c(Br)c2[nH]1"
  Class assignment: "NO"
- Compound: "Cn1cc(C2=C(c3ccc(Cl)cc3Cl)C(=O)NC2=O)c2ccccc21"
  Class assignment: "NO"
- Compound: "S=C(S)OC1CC2CC1C1CCCC21 (configuration not stated)"
  Class assignment: "NO"
- Compound: "COc1cc(OC)c(/C=C2/C(=O)Nc3ccccc32)c(OC)c1"
  Class assignment: "NO"
- Compound: "O=C(O)[C@@H]1C[C@@H](C(=O)O)N1"
  Class assignment: "NO"
- Compound: "CN(C)CCC(c1ccc(Cl)cc1)c1ccccn1 (configuration not stated)"
  Class assignment: "NO"

----------
experiment: Validation screen for small molecules that induce genotoxicity in human embryonic kidney (HEK293T) cells expressing luciferase-tagged ELG1 (AID 493106); conditions: luminescence; series mostly up to 46.1 µM
Records with an inconclusive call do not appear. Calls of active or inactive are those of the source. Calls follow the shape of the dose curve; as a rule, active = well fitted activation curve with a large enough effect; inconclusive = small, poorly fitted or top-dose-only effect; inactive = no such curve, though single readings can be large or run the other way.
Classes used: active, inactive

- Molecule: "CC(C)NC[C@@H](O)c1ccc(O)c(O)c1"
  Class assignment: "inactive"
- Molecule: "N#C/C(=C\\c1ccc(O)c(O)c1)C(=O)c1ccc(O)c(O)c1"
  Class assignment: "inactive"
- Molecule: "Clc1ccc(N2CCN(Cc3cc4ccccn4n3)CC2)cc1"
  Class assignment: "inactive"
- Molecule: "C#C[C@]1(O)CC[C@H]2[C@@H]3CCC4=Cc5oncc5CC4(C)[C@H]3CCC21C (stereo partly drawn)"
  Class assignment: "inactive"
- Molecule: "COc1cc(SC)ccc1C(=O)N1CCC(Cc2ccccc2)CC1"
  Class assignment: "inactive"
- Molecule: "CN1CCc2cccc3c2C1Cc1ccc(O)c(O)c1-3 (stereo not drawn)"
  Class assignment: "inactive"
- Molecule: "O=c1[nH]c2cc([N+](=O)[O-])c([N+](=O)[O-])cc2[nH]c1=O"
  Class assignment: "inactive"
- Molecule: "Fc1ccc(C(OCCCc2cnc[nH]2)c2ccc(F)cc2)cc1"
  Class assignment: "inactive"
- Molecule: "N=c1ccn2c(n1)O[C@H]1[C@H](O)[C@@H](CO)O[C@H]12"
  Class assignment: "inactive"
- Molecule: "Cc1nc2sccn2c(=O)c1CCN1CCC(=C(c2ccccc2)c2ccc(F)cc2)CC1"
  Class assignment: "inactive"
- Molecule: "CN1CC(=O)N/C1=N/C(=O)Nc1cccc(Cl)c1"
  Class assignment: "inactive"
- Molecule: "CCN1/C(=C/C(C)=O)Sc2ccc(OC)cc21"
  Class assignment: "inactive"
- Molecule: "C=CC(C)=C[C@@]1(C)SC(=O)C(C)=C1O"
  Class assignment: "inactive"
- Molecule: "O=C1NC(O)=NC1(c1ccccc1)c1ccccc1"
  Class assignment: "inactive"
- Molecule: "Cn1c(=O)c2[nH]c(-c3ccccc3)nc2n(C)c1=O"
  Class assignment: "inactive"
- Molecule: "O=C(CCCCCN1CCN(c2ccccc2-c2ccccc2)CC1)NC1CCCc2ccccc21 (stereo not drawn)"
  Class assignment: "inactive"
- Molecule: "NCCCCCCCCCCN"
  Class assignment: "inactive"
- Molecule: "S=C(S)OC1CC2CC1C1CCCC21 (stereo not drawn)"
  Class assignment: "inactive"
- Molecule: "CCCCCCCCCCCCCCCCCCNC(=O)OCC(COP(=O)([O-])OCC[n+]1ccsc1)OC (stereo not drawn)"
  Class assignment: "inactive"
- Molecule: "C[N+](C)(C)CCOP(=O)(O)OP(=O)([O-])OC[C@H]1O[C@@H](n2ccc(N)nc2=O)[C@H](O)[C@@H]1O"
  Class assignment: "inactive"
- Molecule: "CCN(CC)c1ncnc2c1ncn2[C@@H]1O[C@H](COP(=O)(O)OP(=O)(O)C(Br)(Br)P(=O)(O)O)[C@@H](O)[C@H]1O"
  Class assignment: "inactive"
- Molecule: "CC12C(=O)OC(=O)C1(C)C1CCC2O1 (stereo not drawn)"
  Class assignment: "active"
- Molecule: "Cn1ncc(S(=O)(=O)Cc2ccccc2)c(Br)c1=O"
  Class assignment: "inactive"
